tested on: UACC-257 melanoma; assay: NCI tumour cell line growth inhibition, 48 h
measurement label: TGI (µM)
Write the value in µM as a bare number.

Record excerpt, results attached:
substance smiles	measured
CNC(=O)OCc1c2ccncc2c(C)c2c1[nH]c1ccccc12	2.05
CCCCCCCCCCCCCC1=NCCN1CCO	36.9
O=C1C(=O)c2c(nc3ccc(Br)cn23)-c2ccccc21	2.09
NC(=S)N/N=C1\NC(=O)/C(=C/c2ccc3c(c2)OCO3)S1	76.1

--- query ---
input: Item: `Nc1nc2c(s1)CCc1c-2c(Br)n(Cc2ccccc2)c1Br` Test system: UACC-257 melanoma Read-out: TGI Value: ?
output: 25.6
